Test system: plasma levels of FFA
PROTOCOL_DETAILS: Effect of oral administration on plasma levels of FFA in the empty rat
CONDITION_CONTEXT: 30 mg/kg oral referred to nicotinic acid, 1 h, empty rat
// Percent variations of plasma FFA with respect to the controls lookup, one value per entry
Quick note: give the figure in %, leave out the unit.

COMPOUND: O=C(O)c1cccnc1
OBSERVED_RESULT: -81

COMPOUND: O=C(N[C@H]1C(OC(=O)c2cccnc2)O[C@H](COC(=O)c2cccnc2)[C@@H](OC(=O)c2cccnc2)[C@@H]1OC(=O)c1cccnc1)c1cccnc1 (stereo partly shown) [GLUN, N-nicotinoyl-glucosamine tetranicotinate]
OBSERVED_RESULT: -33

COMPOUND: O=C(OCC(COC(=O)c1cccnc1)(COC(=O)c1cccnc1)COC(=O)c1cccnc1)c1cccnc1 [NICERITROLE, pentaerithritol-tetranicotinate]
OBSERVED_RESULT: -87

Continue with the next compound.
Field Percent variations of plasma FFA with respect to the controls (system: plasma levels of FFA) for entry O=C(OC[C@H](OC(=O)c1cccnc1)[C@@H](OC(=O)c1cccnc1)[C@H](OC(=O)c1cccnc1)[C@@H](COC(=O)c1cccnc1)OC(=O)c1cccnc1)c1cccnc1 [SORBINICATE, D-glucitol hexanicotinate] = -56
